# System: CP203
# assayName: qHTS profiling for inhibitors of Plasmodium falciparum proliferation (AID 504749); further: nearly all actives have a fitted effect of over 60% in size
# measurementContext: P. falciparum in erythrocytes, SYBR Green DNA, 72 h; series mostly up to 28.7 µM
Records with an inconclusive call do not appear. Active and inactive are the calls of the source. The call rests on the fitted dose curve; in most records, active means well fitted inhibition curve with a large enough effect; inconclusive means small, poorly fitted or top-dose-only effect; inactive means flat fitted curve, though single readings scatter.
Answer with one of the outcomes active, inactive

Use these answered entries as a reference point.
CC[C@H](c1ccc(O)cc1)[C@@H](CC)c1ccc(O)cc1: inactive
N/C(=N\N=C\c1ccc(Cl)cc1)N/N=C/c1ccc(Cl)cc1: inactive
CC(C)(C)CC(C)(C)c1ccc(O)c(-n2nc3ccccc3n2)c1: inactive
CN1CCN(C2=Nc3cc(F)ccc3Cc3ccccc32)CC1: inactive

Recorded call for CC(C)CCCC(C)N (centres undefined) ?
inactive

Recorded call for CC(=O)Nc1ccc(S(=O)(=O)Nc2ccc([N+](=O)[O-])cc2)cc1 ?
inactive

Recorded call for CCOC(=O)C(C#N)=C(c1ccccc1)c1ccccc1 ?
inactive

Recorded call for CCCCCCCCCCCCCC(=O)OC(C)C ?
inactive

Recorded call for C#C[C@]1(OC(C)=O)CC[C@H]2[C@@H]3CCC4=C/C(=N/O)CC[C@@H]4[C@H]3CC[C@@]21CC ?
inactive

----------
# targetUnderTest: Cytochrome P450 2C9 (Homo sapiens) (UniProt P11712)
# Sequence (P11712 whole entry, looked up): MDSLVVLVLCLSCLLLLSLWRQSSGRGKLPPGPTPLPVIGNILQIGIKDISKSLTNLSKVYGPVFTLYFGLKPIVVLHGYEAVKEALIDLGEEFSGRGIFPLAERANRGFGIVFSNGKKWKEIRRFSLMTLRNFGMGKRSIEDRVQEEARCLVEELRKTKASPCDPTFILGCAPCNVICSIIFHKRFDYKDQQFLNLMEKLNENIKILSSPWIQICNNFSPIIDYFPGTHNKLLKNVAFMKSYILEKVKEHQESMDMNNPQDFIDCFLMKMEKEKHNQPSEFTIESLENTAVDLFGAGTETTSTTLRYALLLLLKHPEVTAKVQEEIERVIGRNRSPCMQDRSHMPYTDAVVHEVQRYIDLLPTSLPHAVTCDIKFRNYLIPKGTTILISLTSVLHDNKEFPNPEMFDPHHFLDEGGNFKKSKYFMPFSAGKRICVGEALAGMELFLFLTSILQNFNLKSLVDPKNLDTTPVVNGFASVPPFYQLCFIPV
# assayName: Cytochrome P450 family 2 subfamily C member 9 (CYP2C9) small molecule antagonists: luciferase biochemical (cell-free) qHTS assay (AID 1645842); further: nearly all actives have a fitted effect of over 55% in size
# measurementContext: P450-Glo CYP2C9 enzyme assay, luciferin luminescence; series mostly up to 57.4 µM
Results filed as inconclusive are left out. Active and inactive are the calls of the source. The call rests on the fitted dose curve; in most records, active means well fitted inhibition curve with a large enough effect in the repeat runs; inconclusive means weak or mixed curves; inactive means no such curve, though single readings can be large or run the other way.
Answer with one of the outcomes 1.0 (active), 0.0 (inactive)

Use these answered entries as a reference point.
CCCCc1cc2ccccc2c(OCCN(C)C)n1: 0.0
N[C@H](C(=O)O)[C@@H](O)c1ccc(O)c(O)c1: 0.0

Recorded call for C[N+]12CCC(CC1)C(OC(=O)C(O)(c1ccccc1)c1ccccc1)C2 (configuration not stated) ?
0.0

Recorded call for CCCCCCCCNC(C)C(O)c1ccc(SC(C)C)cc1 (configuration not stated) ?
0.0

Recorded call for CCCCCCCCCCCCCCC[C@H](O)[C@@H](N)CO ?
0.0

----------
# Tested on: ATS189
# assayName: qHTS profiling for inhibitors of Plasmodium falciparum proliferation (AID 504749); further: nearly all actives have a fitted effect of over 60% in size
# measurementContext: P. falciparum in erythrocytes, SYBR Green DNA, 72 h; series mostly up to 28.7 µM
Inconclusive results are not listed. Calls of active or inactive are those of the source. Calls come from the whole dose curve; as a rule, active = well fitted inhibition curve with a large enough effect; inconclusive = small, poorly fitted or top-dose-only effect; inactive = flat fitted curve, though single readings scatter.
Answer with one of the outcomes true (1) = active, false (0) = inactive

Use these answered entries as a reference point.
O=C(Nc1cccc(C2=NCCN2)c1)Nc1cccc(C2=NCCN2)c1: true (1)
O=C(Nc1ncc([N+](=O)[O-])s1)c1cccs1: false (0)
O=C(O)C(Cc1cc(I)c(O)c(I)c1)c1ccccc1 (centres undefined): false (0)

Recorded call for CCN(CC)CCNc1ccc(CO)c2sc3ccccc3c(=O)c12 ?
true (1)

Recorded call for Nc1nc(-c2ccccc2)c(Br)c(=O)[nH]1 ?
false (0)

Recorded call for CCC(CC)(CC(=O)Nc1cccc(/C=C/c2nc(C3CCC3)cs2)c1)C(=O)O ?
false (0)

----------
# Tested on: CP268
# assayName: qHTS profiling for inhibitors of Plasmodium falciparum proliferation (AID 504749); further: nearly all actives have a fitted effect of over 60% in size
# measurementContext: P. falciparum in erythrocytes, SYBR Green DNA, 72 h; series mostly up to 28.7 µM
Records with an inconclusive call do not appear. Calls of active or inactive are those of the source. Calls come from the whole dose curve; as a rule, active = well fitted inhibition curve with a large enough effect; inconclusive = small, poorly fitted or top-dose-only effect; inactive = flat fitted curve, though single readings scatter.
Answer with one of the outcomes True = active, False = inactive

Recorded call for CC(C)Nc1cccnc1N1CCN(C(=O)c2cc3cc(NS(C)(=O)=O)ccc3[nH]2)CC1 ?
False

Recorded call for CCOc1ccc(NC(C)=O)cc1 ?
False

Recorded call for CC1=C(C(=O)O)N2C(=O)[C@@H](NC(=O)[C@H](N)c3ccccc3)[C@H]2SC1 ?
False

Recorded call for NS(=O)(=O)Cc1noc2ccccc12 ?
False

Recorded call for Cc1cc(C)cc(OCC2CNC(=O)O2)c1 (stereo not drawn) ?
False
